# target-entity: HA of influenza B virus B/Malaysia/2506/2004 (live virus) (influenza B virus B/Malaysia/2506/2004)
# assay-remarks: cell-based or functional assay
measurement-kind: VNA titers in µg/ml (*assay was done with 25 TCIDs)

>>> reported_value("CR8035 (antibody, V domains shown) VH: EVQLVESGGGLVQPGRSLRLSCAASGFTFDEYIMHWVRQAPGKGPEWVAGINWKGNFMGYADSVQGRFTISRDNAKNSLYLQMNSLRADDTALYYCAKDRLESSAMDILEGGTFDIWGQGTMVTVSS VL: SSELTQDPAVSVALGQTVRITCQGDSLRSYYASWYQQKPGQAPVLVIYGKNNRPSGIPDRFSGSSSRNTASLTITGAQAEDEADYYCDSRDSSGTHYVFGGGTKVTVL")
"4.46 µg/mL"
>>> reported_value("CR8031 (antibody, V domains shown) VH: EVQLVESGGGLVQPGRSLRLSCAASGFTFDEYIMHWVRQAPGKGPEWVAGINWKGNFMGYADSVQGRFTISRDNAKNSLYLQMNSLRADDTALYYCAKDRLESSAMDILEGGTFDIWGQGTMVT VL: QSALTQPASVSGSPGQSITISCTGTSSDVGGYNYVSWYQQHPGKAPKLMIYDVSSRPSGVSNRFSGSKSGDTASLSISGLQAEDEADYYCSSYTSSSTHVFGTGTKVTVL")
"> 50 µg/mL"
>>> reported_value("CR8034 (antibody, V domains shown) VH: EVQLVETGGGLVQPGRSLRLSCAASGFTFDEYIMHWVRQAPGKGPEWVAGINWKGNFMGYADSVQGRFTISRDNAKNSLYLQMNSLRADDTALYYCAKDRLESSAMDILEGGTFDIWGQGTMVTVSS VL: DIQMTQSPSSLSASVGDRVTITCRASQGIRNDLGWYQQKPGKAPKRLIYAASSLQSGVPSRFSGSGSGTDFTLTISSLQPEDFATYYCQQANTYPLTFGGGTKLEIK")
"2.31 µg/mL"
>>> reported_value("CR10023 (antibody, V domains shown) VH: EVQLVETGGGLVQPGRSLRLSCAASGFTFDDYAMHWVRQAPGKGLEWVSGINWVSTTMGYADSVKGRFTISRDNAKNSLYLQMNSLRAEDTALYYCAKDRLESAAIDILEGGTFDIRGQGTMVTVSS VL: QSALTQPPSASGSPGQSVTISCTGTSSDVGGYNYVSWYQQHPGKAPKLMIYDVSKRPSGVPDRFSGSKSGNTASLTISGLQAEDEAEYYCSSYASGSTYVFGTGTKVTVL")
"12.5 µg/mL"
>>> reported_value("CR8059 (antibody, V domains shown) VH: EVQLVQSGAEVKKPGASVRVSCRASGYIFTESGITWVRQAPGQGLEWMGWISGYSGDTKYAQKLQGRVTMTKDTSTTTAYMELRSLRYDDTAVYYCARDVQYSGSYLGAYYFDYWSPGTLVTVSS VL: SYVLTQPPSASGTPGQRVTISCSGSSSNIGTNYVYWYQQFPGTAPKLLIYRSYQRPSGVPDRFSGSKSGSSASLAISGLQSEDEADYYCATWDDSLNGWVFGGGTKLTVL")
"17.7 µg/mL"

Where do the numbers come from? From patent US20160002318A1.
